# system name: T1, StpA-CTD (Escherichia coli, UniProt P0ACG1 90-134)
# T1 chain: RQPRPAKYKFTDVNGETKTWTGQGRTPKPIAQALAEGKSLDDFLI
# experimental protocol: ITC; 25 C; n=1.93; 50 mM BisTris, 25 mM NaCl, pH 6.4; ITC at 5 and 25 C (40 uM RNA in cell, StpA-CTD 400/800/920 uM injected); NMR with 10% D2O, titration at 25 C
# details: protein: recombinant; tags: none (His6-SUMOstar removed by SUMO protease); chain copies: 2
quantity kind: Kd (µM)
Output spec: scalar in µM, unitless text.

Kd measured on GACCGGAAGGUCCGCCUUCC (structured_RNA) [bistable 20mer RNA] = 12.3
